// data source = ChEMBL document CHEMBL1944582

test: Volume of distribution in CD-1 mouse; type: ADME, organism-based; details: in vivo
Hi there, I'd appreciate the recorded Vd for every entry that follows.

>>> print(df.to_string())
                           smiles_structure     result
0  CCCS(=O)(=O)Nc1ccc(Cl)c(C(=O)Nc2cnc3[nH]ncc3c2)c1F  0.17 L/kg
1  CCCS(=O)(=O)Nc1ccc(Cl)c(C(=O)Nc2cnc3[nH]nc(OC)c3c2)c1F  0.11 L/kg
2  CCCS(=O)(=O)Nc1ccc(F)c(C(=O)Nc2cnc3[nH]ccc3c2)c1F   0.2 L/kg
3  CCCS(=O)(=O)Nc1ccc(F)c(C(=O)Nc2cnc3[nH]ncc3c2)c1F  0.68 L/kg

Task: Which Vd is listed for CCCS(=O)(=O)Nc1ccc(F)c(C(=O)Nc2cnc3[nH]cc(Br)c3c2)c1F ?
Result: 0.24 L/kg
